Test: aqueous solubility of 5-azacytidine
Type: physicochemical
Details: water, 5° C.
Reported endpoint: solubility

Structure notation: Nc1ncn([C@@H]2O[C@H](CO)[C@@H](O)[C@H]2O)c(=O)n1
Reported endpoint: solubility
Result: ~6400 µg/mL

---

Test: pKa of 5-azacytidine
Format: physicochemical
Conditions: 25° C.; higher of the two pKa values
Reported endpoint: pKa

Structure notation: Nc1ncn([C@@H]2O[C@H](CO)[C@@H](O)[C@H]2O)c(=O)n1
Result: ~10.2

---

Experiment: pKa of 5-azacytidine
Assay type: physicochemical
Settings: 25° C.; lower of the two pKa values
Reported endpoint: pKa

Compound: Nc1ncn([C@@H]2O[C@H](CO)[C@@H](O)[C@H]2O)c(=O)n1 [5-azacytidine]
Reported endpoint: pKa
Result: ~2.8
